Tested on: SN12C renal
test: NCI-60 one-dose screen, 48 h
condition: 10 µM unless noted
About 83,000 compounds went through this panel and 20% of them were active in at least one assay; those are over-represented in the sample as a whole. Active and inactive are the calls of the source. Rule for the calls: active = growth percent below 10; inactive = the rest.
Classes to choose from: class 1 (active), class 0 (inactive)

What was the test verdict on COc1cccc(-c2nn(-c3ccccc3)cc2-c2ccnc(NCCNS(=O)(=O)c3ccc(Cl)cc3)c2)c1 ?
class 0

Kindly provide the recorded test outcome for the following compound: Cn1c(=O)c2c(ncn2CCC(=O)Nc2ccc(F)cc2)n(C)c1=O
class 0

Could you please tell me the result logged for COC(=O)[C@]12CC[C@@H](C)[C@H](C)[C@@H]1C1=CC[C@@H]3[C@@]4(C)C[C@@H](OC(C)=O)[C@H](O)[C@@](C)(CO)[C@@H]4[C@H](O)C[C@@]3(C)[C@]1(C)CC2 in this assay?
class 1

Returns: the outcome recorded for CC(=O)c1c(C)[nH]c(-c2nc3ccc(N4CCN(C)CC4)cc3[nH]2)c1-c1ccc2c(c1)OCCO2 in this assay.
class 0

Record request — test call for CC[C@H](CC[C@@H](C)[C@H]1CC[C@H]2[C@@H]3/C(=C/c4cccnc4)C(=O)C4=CC(=O)CC[C@]4(C)[C@H]3CC[C@]12C)C(C)C
class 0

Hello, I am checking results. What call was entered for COc1ccc2c(c1)C/C(=C\c1cc(-c3ccc4c(c3)OCO4)n[nH]1)C2=O ?
class 0

State the result this test recorded for C=C(C)[C@@H]1CC[C@]2(C)[C@H](CC[C@@H]3[C@H]4[C@H]5OC[C@@]4(CCC5(C)C)CC[C@]32C)[C@@]1(C)CCCN .
class 0
